Each recorded value in this set is attributed to ChEMBL document CHEMBL4823282.

pIC50 values for the molecules below.
Assay: Cytotoxicity against human glomerular mesangial cells incubated for 12 hrs by MTT assay
Format: cell-based
Conditions: Glomerular mesangial cell
Where a SMILES comes first, the peptide text is derived from it.
The scale used: pIC50 is minus the common logarithm of the concentration in molar units.

Example entries and their recorded answers appear below.
molecule	pIC50
C[C@@H](O)[C@H](NC(=O)[C@H](CCCCN)NC(=O)[C@H](Cc1c[nH]c2ccccc12)NC(=O)[C@H](CCCNC(=N)N)NC(=O)[C@H](CCCCN)NC(=O)[C@H](Cc1c[nH]c2ccccc12)NC(=O)[C@H](Cc1c[nH]c2ccccc12)NC(=O)CN)C(=O)N[C@@H](Cc1c[nH]c2ccccc12)C(=O)N[C@@H](Cc1c[nH]c2ccccc12)C(N)=O (H-GWWKRWKTWW-NH2)	4.31
CC(C)C[C@H](NC(=O)[C@H](Cc1ccccc1)NC(=O)CN)C(=O)N[C@@H](CCCCN)C(=O)N[C@@H](CCCNC(=N)N)C(=O)N[C@@H](Cc1ccccc1)C(=O)N[C@@H](CCCCN)C(=O)N[C@H](C(=O)N[C@@H](CC(C)C)C(=O)N[C@@H](Cc1ccccc1)C(N)=O)[C@@H](C)O (H-GFLKRFKTLF-NH2)	3.68
N=C(N)NCCC[C@H](NC(=O)[C@H](CCCNC(=N)N)NC(=O)[C@H](Cc1c[nH]c2ccccc12)NC(=O)[C@H](CCCNC(=N)N)NC(=O)[C@H](CCCNC(=N)N)NC(=O)[C@H](Cc1c[nH]c2ccccc12)NC(=O)[C@H](Cc1c[nH]c2ccccc12)NC(=O)[C@@H](N)CCCNC(=N)N)C(=O)N[C@@H](Cc1c[nH]c2ccccc12)C(=O)N[C@@H](Cc1c[nH]c2ccccc12)C(N)=O (H-RWWRRWRRWW-NH2)	4.95
CC[C@H](C)[C@H](NC(=O)[C@H](CCCNC(=N)N)NC(=O)[C@H](CCCNC(=N)N)NC(=O)[C@H](Cc1ccccc1)NC(=O)[C@H](Cc1ccccc1)NC(=O)CN)C(=O)N[C@@H](CCCCN)C(=O)N[C@H](C(=O)N[C@@H](Cc1ccccc1)C(=O)N[C@@H](Cc1ccccc1)C(N)=O)[C@@H](C)O (H-GFFRRIKTFF-NH2)	4.04

Consider now this further molecule.
Challenge: Which measured pIC50 value corresponds to N=C(N)NCCC[C@H](NC(=O)[C@H](CCCCN)NC(=O)[C@H](Cc1c[nH]c2ccccc12)NC(=O)[C@H](Cc1c[nH]c2ccccc12)NC(=O)[C@@H](N)CCCCN)C(=O)N[C@@H](Cc1c[nH]c2ccccc12)C(=O)N[C@@H](CCCCN)C(=O)N[C@@H](CCCCN)C(=O)N[C@@H](Cc1c[nH]c2ccccc12)C(=O)N[C@@H](Cc1c[nH]c2ccccc12)C(N)=O (H-KWWKRWKKWW-NH2) ?
Response given: 4.70
